Tested on: YAP/TAZ-TEAD transcription
assay_name: Reporter gene assay for measuring the inhibition of YAP/TAZ-TEAD transcription (TEAD-responsive element luciferase reporter in Hek293T cells)
Format: cell-based
condition: Homo sapiens, HEK-293T; Hek293T cells transfected with TEAD-responsive luciferase reporter, 24 hours incubation
Protocol: Hek293T cells are cultured in DMEM supplemented with 10% fetal bovine serum, Sodium pyruvate, Sodium bicarbonate, L-glutamine. The cells are harvested and transiently transfected with TEAD-responsive element luciferase reporter. […] The plate was shaken for 10 min at 600 rpm, centrifuged for 1 min at 500 rpm and measured with an Envision reader (PerkinElmer). The amount of relative light units produced by the TEAD reporter is used to calculated percent of inhibition. […]
Each record here notes measured EC50.

Example cases with answers are listed next.
> print(dat)
                                   compound  experimental.result
1  O=C(O)Cc1cn2cc(-c3ccccc3)cc(-c3cnn(Cc4cccnc4)c3)c2n1           > 20000 nM
2  C=CC(=O)NCc1cn(-c2ccc(C(F)(F)F)cc2)c2ccccc12            < 1000 nM
3  C=CC(=O)NCc1cc2ccccc2n1Cc1ccc(C(F)(F)F)cc1            < 1000 nM

The record that follows has no EC50 shown yet.
## Input Looking for the measured EC50 of C=CC(=O)Nc1cn(-c2ccccc2)c2ccccc12 [compound 22, N-(1-phenyl-1H-indol-3-yl)acrylamide] , can you help?
## Output 1000 to 20000 nM

* * *

Tested on: YAP/TAZ-TEAD transcription
assay_name: Reporter gene assay for measuring the inhibition of YAP/TAZ-TEAD transcription (TEAD-responsive element luciferase reporter in Hek293T cells)
Assay type: cell-based
condition: Homo sapiens, HEK-293T; Hek293T cells transfected with TEAD-responsive luciferase reporter, 24 hours incubation
pEC50: −log10 of the molar value.
measured_parameter: pEC50

// solved cases for pEC50 follow
> print(dat)
                                   compound  measured.parameter  experimental.result
1  CS(=O)(=O)NCc1nn(-c2ccc(C(F)(F)F)cc2)c2ccc(OCc3ccccc3)cc12 [compound 56]               pEC50         4.70 to 6.00
2  C=CC(=O)Nc1cn(-c2ccc(-c3ccccc3)cc2)c2ccccc12 [compound 26]               pEC50               > 6.00
3  C=CC(=O)NCc1nn(-c2ccc(C(F)(F)F)cc2)c2cnccc12 [compound 59]               pEC50               > 6.00
4  CS(=O)(=O)NCc1nn(-c2ccc(C(F)(F)F)cc2)c2cc(C(F)(F)F)ccc12 [compound 76]               pEC50         4.70 to 6.00
5  C=CC(=O)NCc1nn(-c2ccc(C(F)(F)F)cc2)c2ccc(OCC3CC3)cc12 [compound 66]               pEC50               > 6.00

## Input Would you kindly share the measured pEC50 for CS(=O)(=O)NCc1nn(-c2ccc(C(F)(F)F)cc2)c2ccc(OCc3cc[nH]n3)cc12 [compound 52] ?
## Output 4.70 to 6.00

## Input And then CCC(=O)NCc1cc2ccccc2n1-c1ccc(C(F)(F)F)cc1 [compound 30] , what is it?
## Output < 4.70

## Input C=CC(=O)NCc1nn(-c2ccc(C(F)(F)F)cc2)c2ccc(OCC3CCOC3)cc12 (racemic) [compound 46] ?
## Output > 6.00

## Input Check CN(C)S(=O)(=O)NCc1nn(-c2ccc(C(F)(F)F)cc2)c2ccccc12 [compound 13] too.
## Output 4.70 to 6.00

## Input Param item: C=CC(=O)NCc1cc2ccccc2n1Cc1cccc(C(F)(F)F)c1 [compound 32]
## Output > 6.00

## Input Next record, please: CNC(=O)Cc1cn2cc(-c3ccccc3)cc(-c3ccn(C)n3)c2n1 [compound 37]
## Output < 4.70

## Input And for O=C(NCC(O)CO)c1nn(-c2ccc(C(F)(F)F)cc2)c2ccccc12 (centres unmarked) [compound 15] ?
## Output 4.70 to 6.00

## Input Also check C=CC(=O)Nc1cn(-c2ccc(C(C)C)cc2)c2ccccc12 [compound 23]
## Output > 6.00

## Input // query: CS(=O)(=O)NCc1nn(-c2ccc(C(F)(F)F)cc2)c2cc(OC3CC3)ccc12 [compound 61]
## Output 4.70 to 6.00

* * *

Tested on: YAP/TAZ-TEAD transcription
assay_name: Reporter gene assay for measuring the inhibition of YAP/TAZ-TEAD transcription (TEAD-responsive element luciferase reporter in Hek293T cells)
Format: cell-based
condition: Homo sapiens, HEK-293T; Hek293T cells transfected with TEAD-responsive luciferase reporter, 24 hours incubation
Experimental: Hek293T cells are cultured in DMEM supplemented with 10% fetal bovine serum, Sodium pyruvate, Sodium bicarbonate, L-glutamine. The cells are harvested and transiently transfected with TEAD-responsive element luciferase reporter. […] The plate was shaken for 10 min at 600 rpm, centrifuged for 1 min at 500 rpm and measured with an Envision reader (PerkinElmer). The amount of relative light units produced by the TEAD reporter is used to calculated percent of inhibition. […]
measured_parameter: EC50

A selection of reference data follows.
> print(dat)
                                   compound  experimental.result
1  O=C(O)COc1cccc2c1cnn2-c1ccc(C(F)(F)F)cc1 [compound 69]              > 20 µM
2  C=CC(=O)NCc1nn(-c2ccc(C(F)(F)F)cc2)c2ccc(Oc3cc(=O)[nH]c(=O)n3C)cc12 [compound 51]               < 1 µM
3  O=S1(=O)CCCN1Cc1nn(-c2ccc(C(F)(F)F)cc2)c2ccccc12 [compound 7]           1 to 20 µM

## Input What value of measured EC50 is listed for C=CC(=O)NCc1nn(-c2ccc(C(F)(F)F)cc2)c2ccc(OCC#N)cc12 [Cpd. No. 43] ?
## Output < 1 µM

* * *

Tested on: YAP/TAZ-TEAD transcription
assay_name: Reporter gene assay for measuring the inhibition of YAP/TAZ-TEAD transcription (TEAD-responsive element luciferase reporter in Hek293T cells)
Format: cell-based
condition: Homo sapiens, HEK-293T; Hek293T cells transfected with TEAD-responsive luciferase reporter, 24 hours incubation
Protocol: Hek293T cells are cultured in DMEM supplemented with 10% fetal bovine serum, Sodium pyruvate, Sodium bicarbonate, L-glutamine. The cells are harvested and transiently transfected with TEAD-responsive element luciferase reporter. […] The plate was shaken for 10 min at 600 rpm, centrifuged for 1 min at 500 rpm and measured with an Envision reader (PerkinElmer). The amount of relative light units produced by the TEAD reporter is used to calculated percent of inhibition. […]
pEC50: −log10 of the molar value.
measured_parameter: pEC50

> print(dat)
                                   compound  experimental.result
1  C=CC(=O)NCc1nn(-c2ccc(C(F)(F)F)cc2)c2ccccc12               > 6.00
2  CS(=O)(=O)NCc1nn(-c2ccc(C(F)(F)F)cc2)c2ccc(OCC#N)cc12               < 4.70
3  C=CC(=O)NC1C(=O)N(c2ccc(C(F)(F)F)cc2)c2ccccc21 (centres unmarked)         4.70 to 6.00
4  C=CC(=O)NCc1nn(-c2ccc(C(F)(F)F)cc2)c2cc(OC3CC3)ccc12               > 6.00
5  Cn1ccc(-c2cc(Nc3ccccc3)cn3cc(CC(=O)O)nc23)n1               < 4.70

## Input Record lookup: for YAP/TAZ-TEAD transcription, what pEC50 belongs to O=C(NS(=O)(=O)C1CC1)c1nn(-c2ccc(C(F)(F)F)cc2)c2ccccc12 ?
## Output < 4.70

## Input // repeat for CCC(=O)NCc1nn(-c2ccc(OC(F)(F)F)cc2)c2ccccc12 and report
## Output 4.70 to 6.00

* * *

Tested on: YAP/TAZ-TEAD transcription
assay_name: Reporter gene assay for measuring the inhibition of YAP/TAZ-TEAD transcription (TEAD-responsive element luciferase reporter in Hek293T cells)
Type: cell-based
condition: Homo sapiens, HEK-293T; Hek293T cells transfected with TEAD-responsive luciferase reporter, 24 hours incubation
Method: Hek293T cells are cultured in DMEM supplemented with 10% fetal bovine serum, Sodium pyruvate, Sodium bicarbonate, L-glutamine. The cells are harvested and transiently transfected with TEAD-responsive element luciferase reporter. […] The plate was shaken for 10 min at 600 rpm, centrifuged for 1 min at 500 rpm and measured with an Envision reader (PerkinElmer). The amount of relative light units produced by the TEAD reporter is used to calculated percent of inhibition. […]
Reported EC50 by item:

Example cases with answers are listed next.
> print(dat)
                            chemical.string  experimental.result
1  C#CCOc1ccc2c(c1)c(CNC(=O)C=C)nn2-c1ccc(C(F)(F)F)cc1               < 1 µM
2  Cn1c(Oc2ccc3c(c2)c(CNS(C)(=O)=O)nn3-c2ccc(C(F)(F)F)cc2)cc(=O)[nH]c1=O              > 20 µM

Then this compound:
## Input May I ask what EC50 has been recorded for CS(=O)(=O)NCc1nn(-c2ccc(C(F)(F)F)cc2)c2ccc(Oc3ccccc3)cc12 ?
## Output 1 to 20 µM

FYI, the data here is from patent US20230202985A1.
